# Test system: Fer (mouse)
# experimentDescription: phosphorylation enrichment, bacterial display (enrichment ratio); higher = better substrate or ligand; peptides without Tyr show the background;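 note: 11-residue human phosphosite peptides and single-mutation variants displayed on the E. coli surface, counted by deep sequencing, each peptide's frequency after selection divided by its frequency in the unselected input library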;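 note: frequency after pTyr selection over input frequency; kinase dosed for 20-30% of maximal phosphorylation in three min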
metric: phosphorylation enrichment

{"entrySequence": "VSLEAYCKHKF [RXRA_Y403_A398V_YF]", "metric": "phosphorylation enrichment", "observedResult": 0.411}

Parameters: items (list). Returns: phosphorylation enrichment for each item.
1. RSAGKYDVFLI [MECP2_Y120_YF]
2. YSQNICIQNRN [PKP2_Y631_Y631C]
3. GPTLSYGRDGR [MATR3_Y158]
4. VGSIEYLKREW [KCNMA1_Y885]
5. IGKDLYANNVL [ACTA2_Y296_R292G]
6. VLALWYFFLTN [ZDHHC23_Y127_H132N_YF]
7. QPEDIYHQTWA [GBA_Y244_G241E]
8. DHFNQYEQQKM [CHD7_Y75_YF]

[reply]
1. 0.618
2. 0.498
3. 0.306
4. 0.447
5. 0.619
6. 0.595
7. 3.02
8. 0.415

Parameters: items (list). Returns: phosphorylation enrichment for each item.
1. LNAGAYSKVVQ [PPT1_Y172]
2. RHLLRYLSWTV [CLCNKB_Y93_S88R]
3. VRFTEYETQVK [TARDBP_Y155]
4. TGFRPYVCPFD [YY1_Y383_D380Y_YF]
5. IDSTPYRQWYE [RPS8_Y109]
6. AAVDEYLEHRR [FAM221A_Y17_Y20H]
7. TAALWYIYLHT [ENG_Y612_S615L]
8. GRTNIYKNKKD [SLC26A3_Y520]

[reply]
1. 1.02
2. 0.594
3. 0.431
4. 0.892
5. 0.51
6. 0.421
7. 0.769
8. 0.349

Parameters: items (list). Returns: phosphorylation enrichment for each item.
1. FASVEYQEALS [GALNS_Y461_A459V]
2. ILGRFYETSSI [PAX2_Y73_G76S_YF]
3. MKVPVYETPAG [PGM5_Y358]
4. QMVGMYAFSYM [AVPR2_Y124_S126F]

[reply]
1: 0.47; 2: 0.887; 3: 11.6; 4: 4.47

* * *

# Test system: AncSZ
# experimentDescription: phosphorylation enrichment, bacterial display (enrichment ratio); higher = better substrate or ligand; peptides without Tyr show the background
Rule: phosphorylation enrichment of 0.9 or more gives label 1; anything lower gives label 0.

[ask] # check: phosphorylation enrichment of GYRPVYSEDEQ [CHST6_Y362] is greater than or equal to 0.9
[reply] label 1

[ask] # check: phosphorylation enrichment of FADIAYIYRHG [PAH_Y166_N167I] is greater than or equal to 0.9
[reply] label 0

[ask] # check: phosphorylation enrichment of VVAHHYSFAPD [TNS3_Y601_Q600H] is greater than or equal to 0.9
[reply] label 0

[ask] # check: phosphorylation enrichment of IVRSLYKDLED [VHL_Y185_E186K] is greater than or equal to 0.9
[reply] label 1

[ask] # check: phosphorylation enrichment of AAGGRYFGLVG [HARS1_Y363_D364Y_YF] is greater than or equal to 0.9
[reply] label 0

[ask] # check: phosphorylation enrichment of CLAKMYYSAVE [CP_Y539_D544E] is greater than or equal to 0.9
[reply] label 1

[ask] # check: phosphorylation enrichment of AACQHYGVHTC [NR4A2_Y275_R278H] is greater than or equal to 0.9
[reply] label 0

[ask] # check: phosphorylation enrichment of ALAHKCHGGGG [HBB_Y146_Y146C] is greater than or equal to 0.9
[reply] label 0

[ask] # check: phosphorylation enrichment of GLAELYEYKKK [CKAP5_Y1854] is greater than or equal to 0.9
[reply] label 0

[ask] # check: phosphorylation enrichment of HVEAVYIDIAD [PITPNA_Y140] is greater than or equal to 0.9
[reply] label 1

[ask] # check: phosphorylation enrichment of PYSEPYADYGG [APBA1_Y187] is greater than or equal to 0.9
[reply] label 1

[ask] # check: phosphorylation enrichment of EWKQKYEESQS [MYH6_Y1462] is greater than or equal to 0.9
[reply] label 1
